System: HuCCA-1 (cholangiocarcinoma derived from a patient)
Protocol: Cytotoxic activity assay (MTT)
Assay type: cell-based, human
Run parameters: Homo sapiens, HuCC-A1; 48 h exposure, MTT; read-out: Cell lines, IC50 (μM) HuCCA-1
IC50 vs 50 µM: less than gives criterion met; not less than gives criterion not met.

Example entries and their recorded answers appear below.
1. C=C1CC[C@H]2C(C)(C)CCC[C@]2(C)[C@H]1CC/C(C)=C/C(=O)NCCCCCCCC [Compound 4d]: criterion not met
2. C=C1CC[C@H]2C(C)(C)CCC[C@]2(C)[C@H]1CC/C(C)=C/C(=O)N(C)C [Compound 4m]: criterion met
3. C=C1CCC2C(C)(C)CCC[C@]2(C)[C@H]1CC/C(C)=C/C=O (stereo partly drawn) [Compound 3]: criterion not met

Next:
Query block: Decide: IC50 of C=C1CC[C@H]2C(C)(C)CCC[C@]2(C)[C@H]1CC/C(C)=C/C(=O)NOC1CCCCO1 (stereo partly drawn) [Compound 4l] strictly below 50 µM?
Result block: criterion not met
